The reported measurements were obtained from PubChem BioAssay (NCI).

Some compounds, each annotated with its measured TGI.
# Tested on: LOX IMVI melanoma
# METHOD_DESCRIPTION: NCI tumour cell line growth inhibition, 48 h
A number alone suffices; assume µM.

Example results:
>  <COMPOUND>
COc1ccc2nc3ccccc3c(NCc3ccccc3)c2c1

>  <TARGET_OR_TEST_SYSTEM>
LOX IMVI melanoma

>  <QUANTITY>
TGI

>  <VALUE_OBSERVED>
3.29

$$$$
>  <COMPOUND>
C/C=C1/C(=Cc2[nH]c(C=c3[nH]/c(=C/C4=NC(=O)C(CC)=C4C)c(C)c3CCC(=O)O)c(CCC(=O)O)c2C)NC(=O)C1C (stereo unspecified)

>  <TARGET_OR_TEST_SYSTEM>
LOX IMVI melanoma

>  <QUANTITY>
TGI

>  <VALUE_OBSERVED>
2.61

$$$$
>  <COMPOUND>
CC1OC(CC2C=CCc3c(O)c4c(c(O)c32)C(=O)c2ccccc2C4=O)CC(NC(=O)C(F)(F)F)C1O (stereo unspecified)

>  <TARGET_OR_TEST_SYSTEM>
LOX IMVI melanoma

>  <QUANTITY>
TGI

>  <VALUE_OBSERVED>
20.6

$$$$
>  <COMPOUND>
CN(C)CCNC(=O)c1cccc2c1nc(-c1ccncc1)c1ccccc12

>  <TARGET_OR_TEST_SYSTEM>
LOX IMVI melanoma

>  <QUANTITY>
TGI

>  <VALUE_OBSERVED>
3.66

$$$$
>  <COMPOUND>
CSc1cc(C(C)(C)C)ccc1C(O)c1ccc(C(C)(C)C)cc1SC

>  <TARGET_OR_TEST_SYSTEM>
LOX IMVI melanoma

>  <QUANTITY>
TGI

>  <VALUE_OBSERVED>
24.3

$$$$
>  <COMPOUND>
CC(=O)OC(C)c1cc2c(s1)C(=O)c1ccsc1C2=O (stereo unspecified)

>  <TARGET_OR_TEST_SYSTEM>
LOX IMVI melanoma

>  <QUANTITY>
TGI

>  <VALUE_OBSERVED>
0.119

$$$$

Which TGI reading was recorded for the compound CC(=O)O[C@H]1CC[C@]2(C)C3C(=O)C[C@]4(C)[C@@H](C(C)CCC(=O)O)CC[C@@]4(C)[C@@H]3CC[C@H]2C1(C)C (stereo partly specified) ? 20.7

Which TGI reading was recorded for the compound `C/C=C(\C)C(=O)O[C@@H]1C=CC(=O)O[C@H]1CNC(=O)[C@H](C)O` ? 31.3

Which TGI reading was recorded for the compound C(=C\c1ccc(OCC2CO2)cc1)/C1=NCOC1 (stereo unspecified) ? 13.6

Which TGI reading was recorded for the compound CC(=O)OCC1=CC2CCC3C(C)(CCC[C@]3(C)COC(C)=O)C23CC[C@H]1C3 (stereo partly specified) ? 62.3

Which TGI reading was recorded for the compound CC[Si](CC)(CC)OC1[C@@H](O[Si](CC)(CC)CC)[C@@H](CNC(=O)NC)O[C@H]1n1cnc2c(NC(=O)Nc3ccccc3)ncnc21 (stereo partly specified) ? 7.85

Which TGI reading was recorded for the compound `COc1ccc2[nH]c3c(O)c(-c4c(C)cc5c([nH]c6ccc(OC)cc65)c4O)c(C)cc3c2c1` ? 8.06

Which TGI reading was recorded for the compound `CCCCC[C@H]1C/C=C2/C(=O)C(Cl)=C[C@@H]2C/C=C\CCCC(=O)O1` ? 0.449
